meta.source: the supplement of paper PMC8728848

Target under test: Neu5Ac(a2-6)Gal(b1-4)GlcNAc(b1-3)Gal(b1-4)GlcNAc(b1-3)GalNAc
Measurement description: glycan array binding signal (z-score within array); higher = stronger binding
Stated conditions: glycan notation: IUPAC condensed, linker removed
This is one part of a sample in which the strongest signals are shown more often than they occur.
Measured parameter: glycan array binding signal (z-score)
Lab note: jot down the number only; don't add units.

SynCAM (Mus musculus) (protein) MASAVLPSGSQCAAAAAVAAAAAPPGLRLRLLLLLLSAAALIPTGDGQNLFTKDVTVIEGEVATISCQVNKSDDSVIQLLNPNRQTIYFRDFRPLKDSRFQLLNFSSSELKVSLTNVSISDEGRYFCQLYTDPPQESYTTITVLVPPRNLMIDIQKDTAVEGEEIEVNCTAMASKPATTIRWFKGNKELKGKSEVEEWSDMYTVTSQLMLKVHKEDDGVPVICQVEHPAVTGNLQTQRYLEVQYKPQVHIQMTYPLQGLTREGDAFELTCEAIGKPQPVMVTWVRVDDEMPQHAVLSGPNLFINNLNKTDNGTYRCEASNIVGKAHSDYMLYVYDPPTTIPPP : -0.464

Let us examine a further case.
Record CLEC5A (Homo sapiens), Q9NY25 (protein) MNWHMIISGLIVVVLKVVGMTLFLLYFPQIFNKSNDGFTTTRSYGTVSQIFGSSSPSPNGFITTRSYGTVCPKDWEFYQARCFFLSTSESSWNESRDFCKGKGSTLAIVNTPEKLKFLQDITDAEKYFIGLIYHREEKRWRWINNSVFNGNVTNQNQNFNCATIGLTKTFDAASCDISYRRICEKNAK . Reported glycan array binding signal (z-score): -0.189
